Attribute: ΔTm BRAF
Target: BRAF (Homo sapiens)
Construct: purchased in-house DSF panel (SGC Frankfurt)
Sequence (P15056 444-723): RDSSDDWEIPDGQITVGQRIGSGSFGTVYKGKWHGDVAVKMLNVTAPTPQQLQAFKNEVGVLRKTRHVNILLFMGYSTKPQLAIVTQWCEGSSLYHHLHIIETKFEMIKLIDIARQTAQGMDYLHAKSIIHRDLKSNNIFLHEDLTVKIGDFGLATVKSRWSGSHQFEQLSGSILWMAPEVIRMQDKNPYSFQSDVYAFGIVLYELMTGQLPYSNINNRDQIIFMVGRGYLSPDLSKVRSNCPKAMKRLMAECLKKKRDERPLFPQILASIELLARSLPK
Test: DSF
Assay type: binding
endpoint name: ΔTm BRAF (°C)

{"columns": ["molecule", "target desc", "recorded result"],
 "data": [
  ["N#CCc1ccc(Nc2nccc(Nc3cc(C4CC4)[nH]n3)n2)cc1 [compound 1, reference compound]", "BRAF (Homo sapiens)", 4.6],
  ["CC(C)(C)OC(=O)Nc1ccc(CNc2nccc(Nc3cc(C(=O)OC(C)(C)C)[nH]n3)n2)cc1 [43d]", "BRAF (Homo sapiens)", 0.7],
  ["COC(=O)c1cc(Nc2ccnc(NCc3ccc(NC(=O)OC(C)(C)C)cc3)n2)[nH]n1 [21i]", "BRAF (Homo sapiens)", 1.0],
  ["CC(C)OC(=O)c1cc(Nc2ccnc(NCc3ccc(NC(=O)OC(C)(C)C)cc3)n2)n[nH]1 [42d]", "BRAF (Homo sapiens)", 0.4],
  ["COC(=O)c1cc(Nc2ccnc(NCCOCCNC(=O)OC(C)(C)C)n2)[nH]n1 [21d]", "BRAF (Homo sapiens)", 0.9]
]}

---

Target: MAPK13 (Homo sapiens)
Construct: purchased in-house DSF panel (SGC Frankfurt)
Sequence (O15264 1-365): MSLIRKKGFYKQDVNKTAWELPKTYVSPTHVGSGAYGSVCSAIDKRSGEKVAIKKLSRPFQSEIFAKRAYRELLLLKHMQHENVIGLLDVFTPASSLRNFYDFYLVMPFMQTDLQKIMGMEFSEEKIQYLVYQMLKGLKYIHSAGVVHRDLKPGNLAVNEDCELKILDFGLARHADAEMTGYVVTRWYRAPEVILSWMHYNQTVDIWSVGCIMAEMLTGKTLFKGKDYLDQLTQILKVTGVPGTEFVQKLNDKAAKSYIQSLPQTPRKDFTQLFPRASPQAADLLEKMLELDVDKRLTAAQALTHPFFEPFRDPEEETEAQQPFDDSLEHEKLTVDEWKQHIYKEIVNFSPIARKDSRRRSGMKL
Assay: DSF
Type: binding
# label = Satisfied if ΔTm MAPK13 < 1 °C else Not satisfied

{"columns": ["compound", "cat"],
 "data": [
  ["COC(=O)c1cc(Nc2ccnc(NCCOCCNC(=O)OC(C)(C)C)n2)[nH]n1 [21d]", "Satisfied"],
  ["CN[C@@H]1C[C@H]2O[C@@](C)([C@@H]1OC)n1c3ccccc3c3c4c(c5c6ccccc6n2c5c31)C(=O)NC4 [staurosporine, reference compound]", "Not satisfied"],
  ["N#CCc1ccc(Nc2nccc(Nc3cc(C4CC4)[nH]n3)n2)cc1 [compound 1, reference compound]", "Not satisfied"],
  ["CC(C)(C)OC(=O)Nc1ccc(CNc2nccc(Nc3cc(C(=O)OC(C)(C)C)[nH]n3)n2)cc1 [43d]", "Not satisfied"]
]}

---

Molecular target: FGFR2 (Homo sapiens);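 further: compound tested at 10 µM with 2 µM protein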
Construct: purchased in-house DSF panel (SGC Frankfurt)
Sequence (P21802 458-770): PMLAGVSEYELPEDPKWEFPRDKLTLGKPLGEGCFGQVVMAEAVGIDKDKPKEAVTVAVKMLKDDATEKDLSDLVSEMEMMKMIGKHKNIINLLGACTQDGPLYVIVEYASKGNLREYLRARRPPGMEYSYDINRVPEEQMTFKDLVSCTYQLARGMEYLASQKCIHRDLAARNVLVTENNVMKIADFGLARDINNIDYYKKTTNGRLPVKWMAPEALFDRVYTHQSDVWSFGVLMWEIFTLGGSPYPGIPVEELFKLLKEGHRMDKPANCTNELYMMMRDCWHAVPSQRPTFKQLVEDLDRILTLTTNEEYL
Assay: DSF
Assay type: binding
Attribute: ΔTm FGFR2
endpoint name: ΔTm FGFR2 (°C)

{"columns": ["compound", "target desc", "unit text", "recorded result"],
 "data": [
  ["CC(C)OC(=O)c1cc(Nc2ccnc(NCc3ccc(NC(=O)OC(C)(C)C)cc3)n2)n[nH]1 [42d]", "FGFR2 (Homo sapiens)", "°C", 0.1],
  ["N#CCc1ccc(Nc2nccc(Nc3cc(C4CC4)[nH]n3)n2)cc1 [compound 1, reference compound]", "FGFR2 (Homo sapiens)", "°C", 5.9],
  ["CC(C)(C)OC(=O)Nc1ccc(CNc2nccc(Nc3cc(C(=O)OC(C)(C)C)[nH]n3)n2)cc1 [43d]", "FGFR2 (Homo sapiens)", "°C", 0.3],
  ["COC(=O)c1cc(Nc2ccnc(NCCOCCNC(=O)OC(C)(C)C)n2)[nH]n1 [21d]", "FGFR2 (Homo sapiens)", "°C", 1.5],
  ["COC(=O)c1cc(Nc2ccnc(NCc3ccc(NC(=O)OC(C)(C)C)cc3)n2)[nH]n1 [21i]", "FGFR2 (Homo sapiens)", "°C", 0.2]
]}
